This collection of values is drawn from PubChem BioAssay (EPA / NIEHS).

Read-out: Tumor necrosis factor (Homo sapiens)
Assay: BSK_LPS_TNFa: BioMAP Diversity Plus: LPS Assay for Tumour Necrosis Factor alpha (TNFa) Biomarker Activity (AID 2283085)
Details: primary human HUVEC with PBMC; actives raise or lower the signal
Description: BSK_LPS is a cell-based, multiplexed-readout assay that uses umbilical vein endothelium and peripheral blood mononuclear cells, a human vascular primary cell co-culture, with measurements taken at 24 hours after chemical dosing in a 96-well plate.BSK_LPS_TNFa is an assay component measured in the BSK_LPS assay. It measures TNF-a antibody related to regulation of gene expression using ELISA technology.Data from the assay component BSK_LPS_TNFa was analyzed into 1 assay endpoint. […]
Calls of active or inactive are those of the source. How the source made its calls: active means hit-call score of the fitted dose curve at least 0.9, where 1 is the maximum; inactive means score below 0.9.
Answer with one of the outcomes T for active, F for inactive

Cn1c(=O)c2[nH]cnc2n(C)c1=O = F
Cn1cc[nH]c1=S = F
OC(Cn1cncn1)(Cn1cncn1)c1ccc(F)cc1F = F
c1ccc2c(c1)-c1cccc3c1c-2cc1ccccc13 = F

Hello, I am checking results. What call was entered for "CCOc1ccc2[nH]cc(C(=O)NCc3ccccc3)c(=O)c2n1" ?
F

Dear colleague, could you share the recorded outcome for "OCc1c[nH]c2ccccc12" when you have a moment?
F

I'd appreciate the recorded outcome for "O=C(O)[C@H](O)[C@@H](O)C(=O)O" from this test.
F

What did this assay record as the result for "OCCOCCOCCO" ?
F

Hi team, can someone confirm the assay call for "CC[C@H](C)C(=O)O[C@H]1C[C@H](O)C=C2C=C[C@H](C)[C@H](CC[C@@H](O)C[C@@H](O)CC(=O)O)[C@H]21" ?
F

Identify the outcome logged in this assay for the molecule shown: "Cc1ncc([C@@H](CCCCCCc2ccc3c(n2)NCCC3)CC(=O)O)cn1"
F

What call does the record list for "COS(C)(=O)=O" ?
F

Recorded test call requested for "O=C(Cl)C(F)(F)C(F)(F)C(F)(F)C(=O)Cl"
F

For "Cc1ccc(S(=O)(=O)NC(=O)NN2CCCCCC2)cc1" , what call appears in the results of this test?
F

Identify the outcome logged in this assay for the molecule shown: "CNC(C)=O"
F

# outcome recorded in this test, key = "CCCCCCCC/C=C\CCCCCCCC(=O)OC[C@@H](O)[C@H]1OC[C@H](O)[C@H]1O"
F

What did this assay record as the result for "C[Si](C)(C)C(F)(F)C(F)(F)C(F)(F)F" ?
F

How did this test come out for "FC(F)=C(F)C(F)(F)C(F)(F)C(F)(F)C(F)(F)C(F)(F)C(F)(F)F" ?
F

Which outcome was entered for the molecule "O=C(O)c1cccc(C[C@@H]2COc3ccc(OCc4nc5cc(F)ccc5s4)cc3[C@@H]2O)c1" in this test?
F

I'd appreciate the recorded outcome for "O=C(O)c1ccc2c(c1)nc(C(=O)NC1CCN(C3CC3)CC1)n2Cc1cc(-c2ccc(Cl)s2)on1" from this test.
F
